Target: Human α2δ-1 subunit of Cav2.2 calcium channel (Homo sapiens (Human), UniProt P54289)
Sequence (P54289 25-1103): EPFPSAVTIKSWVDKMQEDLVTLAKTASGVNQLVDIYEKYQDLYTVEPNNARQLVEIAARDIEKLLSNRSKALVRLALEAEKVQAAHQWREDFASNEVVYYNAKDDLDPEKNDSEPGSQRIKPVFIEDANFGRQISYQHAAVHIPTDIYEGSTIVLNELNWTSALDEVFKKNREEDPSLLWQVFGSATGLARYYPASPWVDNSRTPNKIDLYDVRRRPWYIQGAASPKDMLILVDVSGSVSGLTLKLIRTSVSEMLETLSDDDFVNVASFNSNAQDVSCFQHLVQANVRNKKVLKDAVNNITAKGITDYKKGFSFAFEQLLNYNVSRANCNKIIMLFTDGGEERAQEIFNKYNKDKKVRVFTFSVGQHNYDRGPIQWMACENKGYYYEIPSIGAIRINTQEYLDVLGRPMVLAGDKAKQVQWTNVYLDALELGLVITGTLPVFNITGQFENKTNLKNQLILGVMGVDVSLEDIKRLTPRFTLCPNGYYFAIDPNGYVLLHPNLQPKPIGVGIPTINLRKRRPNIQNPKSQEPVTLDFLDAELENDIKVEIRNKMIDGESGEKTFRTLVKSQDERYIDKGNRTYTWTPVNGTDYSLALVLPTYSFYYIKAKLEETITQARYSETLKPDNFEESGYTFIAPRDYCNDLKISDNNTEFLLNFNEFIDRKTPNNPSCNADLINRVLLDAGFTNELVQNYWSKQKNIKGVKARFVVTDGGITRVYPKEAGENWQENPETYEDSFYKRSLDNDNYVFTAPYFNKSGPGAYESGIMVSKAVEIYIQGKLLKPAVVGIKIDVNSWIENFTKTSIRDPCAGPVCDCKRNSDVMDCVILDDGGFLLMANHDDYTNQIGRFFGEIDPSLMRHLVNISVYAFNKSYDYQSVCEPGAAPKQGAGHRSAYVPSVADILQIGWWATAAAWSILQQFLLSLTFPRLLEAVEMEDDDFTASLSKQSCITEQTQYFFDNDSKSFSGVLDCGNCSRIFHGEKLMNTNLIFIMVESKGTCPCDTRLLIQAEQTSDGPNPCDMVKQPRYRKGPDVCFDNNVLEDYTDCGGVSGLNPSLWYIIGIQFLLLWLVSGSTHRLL
Assay: Binding Assay to Human α2δ-1 Subunit of Cav2.2 Calcium Channel
Details: Table 1; human α2δ-1 enriched membranes, 15 nM [3H]-Gabapentin; read-out: Ki(nM) alpha2delta Hum
Description: Binding Assay to Human α2δ-1 Subunit of Cav2.2 Calcium Channel. NSB (non specific binding) was measured by adding 10 μM pregabalin. The binding of the test compound was measured in five different concentrations. […] Filter plates were dried at 60° C. for 1 hour and 30 μl of scintillation cocktail were added to each well before radioactivity reading.
As shown below, each of these compounds has a reported Ki value.

Examples with answers:
{"columns": ["Compound", "Reported Measurement"],
 "data": [
  ["CNCCC(OCc1cccc(N2CCN(C)c3ccccc3C2=O)c1)c1ccccc1 (centres unmarked) [Example 38]", "500 to 3000 nM"],
  ["CNCCC(Oc1cccc(N2CCN(C)c3nc(N(C)C)ccc3C2=O)c1)c1cccs1 (centres unmarked) [Example 70]", "500 to 3000 nM"],
  ["CCNCC(=O)N1CCCN(c2cccc(OC(CCNC)c3cccs3)c2)CC1 (centres unmarked) [Example 11]", "500 to 3000 nM"],
  ["CNCC[C@@H](Oc1ccc(CN2CCN(C)c3ncccc3C2=O)cc1)c1cccc(F)c1 [Example 150]", "500 to 3000 nM"],
  ["CCNCCC(OCc1cccc(N2CCN(C)c3ccccc3C2=O)c1)c1ccccc1 (centres unmarked) [Example 43]", "100 to 500 nM"],
  ["CNCC[C@H](Oc1ccc(CN2CCN(C)c3nc(N)ccc3C2=O)c(F)c1)c1ccccc1 [Example 137]", "100 to 500 nM"],
  ["CNCC[C@H](Oc1ccc(CN2CCN(C)c3ncccc3C2=O)c(C(F)(F)F)c1)c1ccccc1 [Example 130]", "< 100 nM"],
  ["CCNC[C@@H]1CC(=O)N(c2cccc(O[C@@H](CCNC)c3ccccc3)c2)CCN1C [Example 23]", "> 3000 nM"],
  ["CCN[C@H]1CCCCN(c2cccc(O[C@@H](CCNC)c3cccs3)c2)C1=O [Example 19]", "500 to 3000 nM"],
  ["CNCC[C@H](Oc1ccc(CN2CCN(C)c3ncccc3C2=O)c(C)c1)c1cccs1 [Example 107]", "< 100 nM"]
]}

Incoming: Fill in the blank: the reported Ki of CNCCC(Oc1ccc(CN2CCN(C)c3nc(C)ccc3C2=O)cc1)c1cccs1 (centres unmarked) [Example 100] is ____.
Outgoing: 100 to 500 nM

Incoming: State the recorded Ki for this entry: CCN1CCC(=O)N(c2cccc(OC(CCNC)c3cccs3)c2)CC1 (centres unmarked) [Example 58]
Outgoing: 500 to 3000 nM

Incoming: Which Ki is reported for this compound? CCNc1ccc2c(n1)N(C)CCN(Cc1ccc(O[C@@H](CCNC)c3cccc(F)c3)cc1F)C2=O [Example 148]
Outgoing: 100 to 500 nM

Incoming: What Ki value was documented for this compound, CNCC[C@@H](OCc1cccc(N2C[C@@H]3CCCN3c3ccccc3C2=O)c1)c1ccccc1 [Example 31] ?
Outgoing: 500 to 3000 nM

Incoming: Consider the compound CNCCC(OCc1cccc(N2CCNCCC2=O)c1)c1ccccc1 (centres unmarked) [Example 37] and give its measured Ki.
Outgoing: 500 to 3000 nM

Incoming: Please report the recorded Ki for CNCC[C@H](Oc1ccc(CN2CCN(C)c3ncccc3C2=O)c(Cl)c1)c1cccs1 [Example 126] .
Outgoing: < 100 nM

Incoming: If you can, please state the reported Ki value of CNCCC(OCc1cccc(N2CCN(C)c3nc(C)ccc3C2=O)c1)c1ccccc1 (centres unmarked) [Example 48] .
Outgoing: 500 to 3000 nM
